System: SK-MEL-5 melanoma
MEASUREMENT_DESCRIPTION: NCI-60 one-dose screen, 48 h (100 = growth as untreated, 0 = no growth, -100 = all killed)
REPORTED_CONDITIONS: 10 µM
The panel holds about 83,000 compounds, 20% with a hit somewhere; the sample as a whole holds those more often.
Below, each entry is listed with its recorded growth.

[
  {
    "COMPOUND": "COc1cccc(/C=N/NC(=S)NC2CC3CCC2C3)c1O (stereo not drawn)",
    "growth (%)": 67.8
  },
  {
    "COMPOUND": "CC(C)=C(NC(=O)c1ccccc1)C(=O)O",
    "growth (%)": 99
  },
  {
    "COMPOUND": "CC1=NN(c2ccccc2)C(=O)/C1=C\\N1CC(=O)NC1=S",
    "growth (%)": 101
  },
  {
    "COMPOUND": "CC(=O)OC(OC(C)=O)C1CCCO1 (stereo not drawn)",
    "growth (%)": 104
  },
  {
    "COMPOUND": "O=[N+]([O-])c1ccc(-c2noc(-c3cccs3)n2)cc1",
    "growth (%)": 83.5
  },
  {
    "COMPOUND": "O=C(c1ccc(Cl)cc1)c1ccccc1Cl",
    "growth (%)": 94.5
  },
  {
    "COMPOUND": "CCC(C#N)(CC)c1ccccc1",
    "growth (%)": 98.6
  },
  {
    "COMPOUND": "COc1ccc(-c2cc3c(nn2)-c2ccccc2C3=O)cc1",
    "growth (%)": 85.3
  },
  {
    "COMPOUND": "COc1cc(/C=C/C(=O)c2ccccc2)cc(OC)c1OC",
    "growth (%)": 76.1
  },
  {
    "COMPOUND": "CCOC(=O)C(C#N)Cc1ccccc1 (stereo not drawn)",
    "growth (%)": 117
  },
  {
    "COMPOUND": "CCN=c1cc2sc3cc(NCC)c(C)cc3nc-2cc1C",
    "growth (%)": -56.9
  },
  {
    "COMPOUND": "O=C(O)c1ccc(S(=O)(=O)O)cc1",
    "growth (%)": 110
  },
  {
    "COMPOUND": "COc1cc([C@@H]2c3cc4c(cc3[C@H](O)[C@H]3COC(=O)[C@H]23)OCO4)cc(OC)c1OC",
    "growth (%)": -25
  },
  {
    "COMPOUND": "O=c1[nH]nc(SC2CCCCC2)c(=O)[nH]1",
    "growth (%)": 112
  },
  {
    "COMPOUND": "N#C/C(=C\\c1cc(O)c(O)c(O)c1)C(N)=O",
    "growth (%)": 101
  },
  {
    "COMPOUND": "O=C(O)CCCc1ccccc1",
    "growth (%)": 108
  },
  {
    "COMPOUND": "CNS(=O)(=O)c1ccc(Cl)c(Cl)c1",
    "growth (%)": 96.7
  },
  {
    "COMPOUND": "C[C@@H](c1ccccc1)[C@@H](C(=O)O)c1ccccc1",
    "growth (%)": 98.2
  },
  {
    "COMPOUND": "COc1ccc2c(NCCCCCCCCNc3c4ccccc4nc4cc(OC)ccc34)c3ccccc3nc2c1",
    "growth (%)": -100
  },
  {
    "COMPOUND": "O=C(O)c1cc([N+](=O)[O-])ccc1Cl",
    "growth (%)": 100
  },
  {
    "COMPOUND": "CCOC(=O)c1ccc(NC(=S)P(=O)(c2ccccc2)c2ccccc2)cc1",
    "growth (%)": 104
  },
  {
    "COMPOUND": "O=C(O)CSCSCC(=O)O",
    "growth (%)": 103
  },
  {
    "COMPOUND": "Cc1cc(NC(=O)CSCC(=O)O)no1",
    "growth (%)": 101
  }
]
